# assay target: pooled human IgG (human IgG1,2,3 and 4)
I'd be grateful if you could share measured Enzyme Activity Endpoint Assay (purified): Fab'2 for these entries.
Answers are plain numbers, in ng/µL.

PRT-358 (protein) MSQTEDSESLQRLRDIEDFQAEKKDQNVVYTKWLDGVDVKDHDFRKIVDGNIAYYATPLLNGRGWYDINKDFNRDSDKCAAAVAANMFHYWLDRNRDNVDRFLRQNPEKHGIIELPDGQLKLSDFLNTYESDDGYRDKSKLFDFISENFNGPVWTDKLLDNYINGYAYNYKYGRTIEDPTKNTSKINFFKEVFNEKILTNNHSIRNQNEFSVLLIEALYTGKAIGLSYGPAGLRHSLGHIISVWGADLDADGNVVAIYVTDSDDKKLTIGDERVGLKRYKISTDDEGRLRLTAYEETHNTGGQVRGLWTLDTGKQAWADYFDKTEQTGTDQAEQ = 8

From here, focus on the item given below.
[ask] Quick one: Enzyme Activity Endpoint Assay (purified): Fab'2 for PRT-310 (protein) MQITSVWTKGVTPLTPEQFRENNEDVIHAPYLAHQGWYDITKAFDGKDNLLCGAATAGNMLHWWFDQNKTEIEAYLSKHPEKQKIIFNNQELFDLKAAIDTKDSQTNSQLFDYFRDKAFPNLSARQLGVMPDLVLDMFINGYYLNVFKTQSTDVNRPYQDKDKRGGIFDAVFTRGDQTTLLTARHDLKNKGLNDISTIIKQELTEGRALALSHTYANVSISHVINLWGADFDAEGNLEAIYVTDSDANASIGMKKYFVGRNAHGHVAISAKKIEGENIGAQVLGLFTLSSGKDQWQKLS ?
[reply] 1220
